Entries and their MFI
- assay.system: human DLL3 protein expressed on CHO-K1 recombinant cells (human DLL3 extracellular segment fused to EpCAM transmembrane and intracellular regions) (human) (UniProt Q9NYJ7)
- Sequence (Q9NYJ7 other isoform, or with tags, fused parts or gaps limits assumed): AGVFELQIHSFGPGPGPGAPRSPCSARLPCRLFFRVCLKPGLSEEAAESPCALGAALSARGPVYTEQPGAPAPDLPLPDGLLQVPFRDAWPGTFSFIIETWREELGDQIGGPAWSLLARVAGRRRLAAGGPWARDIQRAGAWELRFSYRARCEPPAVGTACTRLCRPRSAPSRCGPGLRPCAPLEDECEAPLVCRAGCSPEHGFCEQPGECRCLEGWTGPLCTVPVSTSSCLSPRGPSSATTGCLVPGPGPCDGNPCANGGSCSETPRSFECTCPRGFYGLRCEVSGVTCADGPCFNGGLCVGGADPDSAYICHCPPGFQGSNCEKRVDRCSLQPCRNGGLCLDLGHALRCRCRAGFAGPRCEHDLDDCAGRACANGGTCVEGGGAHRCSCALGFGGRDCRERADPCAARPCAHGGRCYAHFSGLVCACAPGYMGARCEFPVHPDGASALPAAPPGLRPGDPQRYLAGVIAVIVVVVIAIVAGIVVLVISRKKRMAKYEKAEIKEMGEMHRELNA
- assay.overview: FACS, CHO-K1 hDLL3 cells, 0.032 nM antibody
Write the number in MFI without appending the unit.

Hab014VL2VH1-hFc (scFv, part only; not given: scFv linker and human IgG1 Fc, V domains shown, not shown: another chain or arm of the molecule; a dimerising Fc or GST; small tags and cut ends) VL: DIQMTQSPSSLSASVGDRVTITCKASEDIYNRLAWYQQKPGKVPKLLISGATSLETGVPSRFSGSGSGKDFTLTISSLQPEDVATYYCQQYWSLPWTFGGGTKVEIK VH: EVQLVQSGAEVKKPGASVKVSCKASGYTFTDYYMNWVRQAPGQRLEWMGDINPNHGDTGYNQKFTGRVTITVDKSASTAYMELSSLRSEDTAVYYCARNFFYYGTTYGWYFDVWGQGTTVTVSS: 705

Now consider a different binder.
Summary for this binder, Hab015VL5VH5a-hFc (scFv, part only; not given: scFv linker and human IgG1 Fc, V domains shown, not shown: another chain or arm of the molecule; a dimerising Fc or GST; small tags and cut ends) VL: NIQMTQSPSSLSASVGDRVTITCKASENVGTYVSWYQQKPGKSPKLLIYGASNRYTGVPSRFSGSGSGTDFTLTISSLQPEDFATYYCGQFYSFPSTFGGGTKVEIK VH: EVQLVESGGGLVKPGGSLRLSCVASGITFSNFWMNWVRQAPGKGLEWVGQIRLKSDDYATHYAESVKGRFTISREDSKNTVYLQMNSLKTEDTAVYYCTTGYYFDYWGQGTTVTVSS : MFI is 339
